- assay.system: T1, human GIP receptor (human, UniProt P48546 22-466)
- T1 sequence (looked up): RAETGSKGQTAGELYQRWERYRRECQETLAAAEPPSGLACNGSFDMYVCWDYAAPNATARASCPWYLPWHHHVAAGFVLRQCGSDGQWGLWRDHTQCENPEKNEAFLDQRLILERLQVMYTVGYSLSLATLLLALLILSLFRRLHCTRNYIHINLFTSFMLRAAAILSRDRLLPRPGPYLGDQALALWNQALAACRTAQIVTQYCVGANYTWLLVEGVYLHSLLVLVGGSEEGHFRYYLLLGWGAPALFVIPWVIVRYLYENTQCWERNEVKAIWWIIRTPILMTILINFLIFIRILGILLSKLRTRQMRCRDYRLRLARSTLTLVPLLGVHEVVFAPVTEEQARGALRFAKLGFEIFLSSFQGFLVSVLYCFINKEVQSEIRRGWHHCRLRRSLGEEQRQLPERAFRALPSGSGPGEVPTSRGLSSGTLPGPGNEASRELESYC
- assay.details: cell-based or functional assay
Classes by cAMP EC50 (1.0% HSA): small value: < 0.3 nM; mid value: ≥ 0.3 nM and < 1 nM; large value: ≥ 1 nM

Worked examples follow.
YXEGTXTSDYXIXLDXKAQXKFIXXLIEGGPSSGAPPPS (Y-Aib-EGT-αMeF(2F)-TSDY-Aib-I-αMeL-LD-Orn-K((2-[2-(2-Amino-ethoxy)-ethoxy]-acetyl)2-CO-(CH2)12-CO2H)AQ-Aib-K((2-[2-(2-Amino-ethoxy)-ethoxy]-acetyl)2-CO-(CH2)12-CO2H)FI-(D-Glu)-αMeY-LIEGGPSSGAPPPS-NH2) [Example 385] = mid value
YXEGTXTSDXXIXLDXKAQXKXIXXLIEGGPSSGAPPPS (not fully specified; Y-Aib-EGT-αMeF(2F)-TSD-4Pal-Aib-I-αMeL-LD-Orn-K((2-[2-(2-Amino-ethoxy)-ethoxy]-acetyl)2-(γ Glu)-CO-(CH2)10H3)AQ-Aib-K((2-[2-(2-Amino-ethoxy)-ethoxy]-acetyl)2-(γGlu)-CO-(CH2)10C3)-αMeFI-(D-Glu)-αMeY-LIEGGPSSGAPPPS-NH2) [Example 430] = large value
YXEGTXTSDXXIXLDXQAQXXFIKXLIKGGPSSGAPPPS (Y-Aib-EGT-αMeF(2F)-TSD-4Pal-Aib-I-αMeL-LD-Orn-QAQ-Aib-Orn-FIK(PEG3-(γ-Glu)-CO-(CH2)12-CO2H)-αMeY-LIK(PEG3-(γ-Glu)-CO-(CH2)12-CO2H)GGPSSGAPPPS-NH2) [Example 458] = mid value
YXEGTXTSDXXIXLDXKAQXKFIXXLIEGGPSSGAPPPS (Y-Aib-EGT-αMeF(2F)-TSD-4Pal-Aib-I-αMeL-LD-Orn-K((2-[2-(2-Amino-ethoxy)-ethoxy]-acetyl)-(γ-Glu)-CO-(CH2)10-CH3)AQ-Aib-K((2-[2-(2-Amino-ethoxy)-ethoxy]-acetyl)-(γ-Glu)-CO-(CH2)10-CH3)FI-(D-Glu)-αMeY-LIEGGPSSGAPPPS-NH2) [Example 426] = large value
YXEGTXTSDXXIXLDXKAQXXFIXXLIEGGPSSGAPPPSK (Y-Aib-EGT-αMeF(2F)-TSD-4Pal-Aib-I-αMeL-LD-Orn-K((2-[2-(2-Amino-ethoxy)-ethoxy]-acetyl)3-(γ Glu)-CO-(CH2)10CH3)AQ-Aib-Orn-FI-(D-Glu)-αMeY-LIEGGPSSGAPPPSK((2-[2-(2-Amino-ethoxy)-ethoxy]-acetyl)3-(γ-Glu)-CO-(CH2)10-CH3)-NH2) [Example 435] = small value
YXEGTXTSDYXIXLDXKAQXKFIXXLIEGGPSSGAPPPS (Y-Aib-EGT-αMeF(2F)-TSDY-Aib-I-αMeL-LD-Orn-K((2-[2-(2-Amino-ethoxy)-ethoxy]-acetyl)2-(10-(4-carboxyphenoxy)decanoyl))AQ-Aib-K((2-[2-(2-Amino-ethoxy)-ethoxy]-acetyl)2-(10-(4-carboxyphenoxy)decanoyl))FI-(D-Glu)-αMeY-LIEGGPSSGAPPPS-NH2) [Example 393] = mid value
YXEGTXTSDYXIXLDXQAQXXFIKXLIKGGPSSGAPPPS (Y-Aib-EGT-αMeF(2F)-TSDY-Aib-I-αMeL-LD-Orn-QAQ-Aib-Orn-FIK((2-[2-(2-Amino-ethoxy)-ethoxy]-acetyl)2-(γ-Glu)2-CO-(CH2)12-CO2H)-αMeY-LIK((2-[2-(2-Amino-ethoxy)-ethoxy]-acetyl)2-(γ-Glu)2-CO-(CH2)12-CO2H)GGPSSGAPPPS-NH2) [Example 480] = small value
YXEGTXTSDXXGXLDXQAQXXFIKXLIKGGPSSGAPPPS (Y-Aib-EGT-αMeF(2F)-TSD-4Pal-Aib-G-αMeL-LD-Orn-QAQ-Aib-Orn-FIK((2-[2-(2-Amino-ethoxy)-ethoxy]-acetyl)2-(γ-Glu)-CO-(CH2)12-CO2H)-αMeY-LIK((2-[2-(2-Amino-ethoxy)-ethoxy]-acetyl)2-(γ-Glu)-CO-(CH2)12-CO2H)GGPSSGAPPPS-NH2) [Example 441] = large value

Data request: Bin this entry: YXEGTXTSDKXIXLDGKAQXEFIXXLIEGGPSSGAPPPS (Y-Aib-EGT-αMeF(2F)-TSDK((2-[2-(2-Amino-ethoxy)-ethoxy]-acetyl)2-(γ-Glu)-CO-(CH2)10-CH3)-Aib-I-αMeL-LDGK((2-[2-(2-Amino-ethoxy)-ethoxy]-acetyl)2-(γ-Glu)-CO-(CH2)10-CH3)AQ-Aib-EFI-(D-Glu)-αMeY-LIEGGPSSGAPPPS-NH2) [Example 445]
Data returned: large value

Data request: Another binder: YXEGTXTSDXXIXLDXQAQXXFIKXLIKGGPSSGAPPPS (Y-Aib-EGT-αMeF(2F)-TSD-4Pal-Aib-I-αMeL-LD-Orn-QAQ-Aib-Orn-FIK(PEG4-(γ-Glu)-(10-(4-carboxyphenoxy)decanoyl))-αMeY-LIK(PEG4-(γ-Glu)-(10-(4-carboxyphenoxy)decanoyl))GGPSSGAPPPS-NH2) [Example 461]
Data returned: small value

Data request: Another binder: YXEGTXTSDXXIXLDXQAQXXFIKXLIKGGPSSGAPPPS (not fully specified; Y-Aib-EGT-αMeF(2F)-TSD-4Pal-Aib-I-αMeL-LD-Orn-QAQ-Aib-Orn-FIK(Aoc-(2-[2-(2-Amino-ethoxy)-ethoxy]-acetyl)-(γ-Glu)-CO-(CH2)12-CO2)-αMeY-LIK(Aoc-(2-[2-(2-Amino-ethoxy)-ethoxy]-acetyl)-(γ-Glu)-CO-(CH2)12-CO2)GGPSSGAPPPS-NH2) [Example 452]
Data returned: large value

Data request: Another binder: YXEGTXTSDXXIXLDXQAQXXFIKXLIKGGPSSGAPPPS (Y-Aib-EGT-αMeF(2F)-TSD-4Pal-Aib-I-αMeL-LD-Orn-QAQ-Aib-Orn-FIK(PEG6-(γ-Glu)-CO-(CH2)12-CO2H)-αMeY-LIK(PEG6-(γ-Glu)-CO-(CH2)12-CO2H)GGPSSGAPPPS-NH2) [Example 466]
Data returned: mid value
